# collection of pIC50 values tested on UniProt:P48736
# Sequence (P48736 whole entry): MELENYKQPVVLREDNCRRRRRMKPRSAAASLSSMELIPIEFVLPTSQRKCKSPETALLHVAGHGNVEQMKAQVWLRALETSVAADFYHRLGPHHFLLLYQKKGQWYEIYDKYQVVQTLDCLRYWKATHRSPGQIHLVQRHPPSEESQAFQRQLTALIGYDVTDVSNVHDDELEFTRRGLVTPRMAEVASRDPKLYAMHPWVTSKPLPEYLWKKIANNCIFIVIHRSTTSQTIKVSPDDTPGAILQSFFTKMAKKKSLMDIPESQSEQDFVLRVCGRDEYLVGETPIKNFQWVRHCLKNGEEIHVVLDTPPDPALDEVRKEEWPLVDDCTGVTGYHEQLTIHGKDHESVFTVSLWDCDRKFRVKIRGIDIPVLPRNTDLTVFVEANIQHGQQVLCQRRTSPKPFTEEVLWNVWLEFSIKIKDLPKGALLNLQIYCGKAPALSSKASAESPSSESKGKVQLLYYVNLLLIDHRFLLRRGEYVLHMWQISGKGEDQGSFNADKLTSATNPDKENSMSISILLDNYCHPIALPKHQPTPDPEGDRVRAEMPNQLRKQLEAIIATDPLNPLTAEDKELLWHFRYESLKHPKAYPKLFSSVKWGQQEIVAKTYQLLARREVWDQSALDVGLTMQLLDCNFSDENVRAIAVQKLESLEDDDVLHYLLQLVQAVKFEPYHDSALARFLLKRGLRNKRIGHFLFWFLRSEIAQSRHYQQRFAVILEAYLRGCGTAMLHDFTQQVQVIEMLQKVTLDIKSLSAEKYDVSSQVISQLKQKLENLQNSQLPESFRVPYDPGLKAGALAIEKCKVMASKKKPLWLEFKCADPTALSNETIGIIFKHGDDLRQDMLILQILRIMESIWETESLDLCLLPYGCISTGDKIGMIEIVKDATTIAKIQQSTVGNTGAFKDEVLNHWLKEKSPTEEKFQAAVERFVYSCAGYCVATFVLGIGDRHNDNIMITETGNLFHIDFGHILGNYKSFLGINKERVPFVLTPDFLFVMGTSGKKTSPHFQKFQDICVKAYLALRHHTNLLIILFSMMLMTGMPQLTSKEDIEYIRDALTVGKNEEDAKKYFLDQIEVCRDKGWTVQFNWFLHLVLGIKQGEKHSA
pIC50: −log10 of the molar value.
parameter measured: pIC50

>  <compound>
Cc1cccc2cc([C@H](C)Nc3cc(N)nc(N)n3)n(-c3ccccc3)c(=O)c12 [Compound 286]

>  <target or test system>
UniProt:P48736

>  <parameter measured>
pIC50

>  <test value>
> 6.00

$$$$
>  <compound>
C=Cc1nn(Cc2cc3cccc(C)c3c(=O)n2-c2ccccc2C)c2ncnc(N)c12 [Compound 180]

>  <target or test system>
UniProt:P48736

>  <parameter measured>
pIC50

>  <test value>
> 6.00

$$$$
>  <compound>
Cc1ccccc1-n1c(Cn2nc(-c3ccc(Cl)cc3)c3c(N)ncnc32)cc2cccc(C)c2c1=O [Compound 49]

>  <target or test system>
UniProt:P48736

>  <parameter measured>
pIC50

>  <test value>
> 6.00

$$$$
>  <compound>
Cc1cccc2cc(Cn3nc(C#C[C@@H](C)O)c4c(N)ncnc43)n(-c3ccccc3F)c(=O)c12 [Compound 28]

>  <target or test system>
UniProt:P48736

>  <parameter measured>
pIC50

>  <test value>
> 6.00

$$$$
>  <compound>
Cc1ccccc1-n1c(Cn2nc(-c3ccc4nc(N)sc4c3)c3c(N)ncnc32)cc2cccc(C)c2c1=O [Compound 145]

>  <target or test system>
UniProt:P48736

>  <parameter measured>
pIC50

>  <test value>
> 7.00

$$$$
>  <compound>
Cc1ccccc1-n1c(Cn2nc(-c3ccc(O)c(Cl)c3)c3c(N)ncnc32)cc2cccc(C)c2c1=O [Compound 25]

>  <target or test system>
UniProt:P48736

>  <parameter measured>
pIC50

>  <test value>
> 7.00

$$$$
>  <compound>
Cc1cccc2cc(Cn3nc(-c4cc(O)cc(F)c4)c4c(N)ncnc43)n(-c3ccccc3)c(=O)c12 [Compound 147]

>  <target or test system>
UniProt:P48736

>  <parameter measured>
pIC50

>  <test value>
> 7.00

$$$$

* * *

biological target: PI3K δ (Homo sapiens, UniProt O00329)
Sequence (O00329 whole entry): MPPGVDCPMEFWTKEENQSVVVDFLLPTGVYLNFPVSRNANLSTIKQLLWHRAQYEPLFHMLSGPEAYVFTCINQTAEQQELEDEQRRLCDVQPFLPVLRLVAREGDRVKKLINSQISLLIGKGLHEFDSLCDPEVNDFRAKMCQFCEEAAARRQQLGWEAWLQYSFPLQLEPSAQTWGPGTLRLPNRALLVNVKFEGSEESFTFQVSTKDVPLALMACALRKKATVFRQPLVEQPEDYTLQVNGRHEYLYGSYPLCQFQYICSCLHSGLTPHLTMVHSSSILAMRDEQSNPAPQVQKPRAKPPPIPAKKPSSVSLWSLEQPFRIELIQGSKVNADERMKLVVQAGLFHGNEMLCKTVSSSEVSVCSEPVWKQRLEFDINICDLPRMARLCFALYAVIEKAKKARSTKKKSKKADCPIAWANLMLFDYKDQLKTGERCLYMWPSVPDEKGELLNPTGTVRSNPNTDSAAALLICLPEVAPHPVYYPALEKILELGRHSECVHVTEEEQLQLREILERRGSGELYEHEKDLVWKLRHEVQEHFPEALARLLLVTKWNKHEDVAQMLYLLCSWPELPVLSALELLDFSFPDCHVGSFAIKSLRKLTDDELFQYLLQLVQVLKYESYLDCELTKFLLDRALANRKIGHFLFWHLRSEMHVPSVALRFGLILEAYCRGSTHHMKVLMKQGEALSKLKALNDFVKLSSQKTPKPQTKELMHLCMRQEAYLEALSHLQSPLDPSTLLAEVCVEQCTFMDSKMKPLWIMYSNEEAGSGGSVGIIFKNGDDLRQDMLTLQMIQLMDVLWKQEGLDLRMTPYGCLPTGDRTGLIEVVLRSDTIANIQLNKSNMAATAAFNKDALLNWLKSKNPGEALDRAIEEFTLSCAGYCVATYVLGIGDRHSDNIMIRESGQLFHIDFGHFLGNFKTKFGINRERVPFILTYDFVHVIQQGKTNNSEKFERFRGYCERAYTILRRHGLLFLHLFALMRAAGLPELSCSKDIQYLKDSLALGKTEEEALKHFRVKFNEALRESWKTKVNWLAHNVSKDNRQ
Sequence (P27986 whole entry partner): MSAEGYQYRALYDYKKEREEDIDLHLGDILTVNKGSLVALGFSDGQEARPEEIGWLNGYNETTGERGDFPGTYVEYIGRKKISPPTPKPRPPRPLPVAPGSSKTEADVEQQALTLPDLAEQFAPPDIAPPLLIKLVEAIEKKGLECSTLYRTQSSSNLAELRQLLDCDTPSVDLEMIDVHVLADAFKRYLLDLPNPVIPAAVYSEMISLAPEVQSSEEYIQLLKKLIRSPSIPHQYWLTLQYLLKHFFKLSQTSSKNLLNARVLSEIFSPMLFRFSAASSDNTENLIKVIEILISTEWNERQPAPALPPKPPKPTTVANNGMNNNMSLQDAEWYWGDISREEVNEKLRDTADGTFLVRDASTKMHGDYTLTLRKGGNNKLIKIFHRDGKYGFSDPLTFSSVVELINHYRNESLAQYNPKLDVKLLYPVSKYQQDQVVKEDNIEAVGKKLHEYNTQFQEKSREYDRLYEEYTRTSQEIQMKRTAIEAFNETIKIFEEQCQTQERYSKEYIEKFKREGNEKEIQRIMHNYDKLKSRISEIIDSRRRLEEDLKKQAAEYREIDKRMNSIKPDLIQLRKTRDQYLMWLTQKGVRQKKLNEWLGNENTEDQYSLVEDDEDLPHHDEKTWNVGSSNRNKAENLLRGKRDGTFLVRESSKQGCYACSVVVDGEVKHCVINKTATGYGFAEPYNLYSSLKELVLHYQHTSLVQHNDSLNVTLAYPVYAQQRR

>  <molecule>
CC(=O)Nc1nc2ccc(-c3nn(Cc4cc5cccc(Cl)c5c(=O)n4C4CC4)c4ncnc(N)c34)cc2s1

>  <target or test system>
PI3K δ (Homo sapiens, UniProt O00329)

>  <IC50>
< 100 nM

$$$$
>  <molecule>
Cc1cccnc1-n1c(Cn2nc(Cl)c3c(N)ncnc32)cc2cccc(C)c2c1=O

>  <target or test system>
PI3K δ (Homo sapiens, UniProt O00329)

>  <IC50>
< 1000 nM

$$$$
>  <molecule>
COC(=O)c1nn(CC2=Cc3cccc(C)c3C(=O)C2c2ccccc2C)c2ncnc(N)c12 (centres unmarked)

>  <target or test system>
PI3K δ (Homo sapiens, UniProt O00329)

>  <IC50>
< 1000 nM

$$$$
>  <molecule>
Cc1ccccc1-n1c(Cn2nc(-c3ccc(O)cc3)c3c(N)ncnc32)cc2cccc(C)c2c1=O

>  <target or test system>
PI3K δ (Homo sapiens, UniProt O00329)

>  <IC50>
< 1000 nM

$$$$
>  <molecule>
CNC(=O)c1nn(Cc2cc3cccc(C)c3c(=O)n2-c2ccccc2)c2ncnc(N)c12

>  <target or test system>
PI3K δ (Homo sapiens, UniProt O00329)

>  <IC50>
< 1000 nM

$$$$
>  <molecule>
Cc1cccc2cc([C@H](C)Nc3nc(Cl)nc4[nH]cnc34)n(C3CC3)c(=O)c12

>  <target or test system>
PI3K δ (Homo sapiens, UniProt O00329)

>  <IC50>
< 100 nM

$$$$
>  <molecule>
Cc1cccc2cc(Cn3nc(I)c4c(N)ncnc43)n(-c3ccccc3C(C)C)c(=O)c12

>  <target or test system>
PI3K δ (Homo sapiens, UniProt O00329)

>  <IC50>
< 100 nM

$$$$
>  <molecule>
Cc1cccc2cc([C@H](C)NC3CCOCC3)n(-c3ccccc3)c(=O)c12

>  <target or test system>
PI3K δ (Homo sapiens, UniProt O00329)

>  <IC50>
> 10000 nM

$$$$
>  <molecule>
CC(=O)Nc1nc2cc(-c3nn(Cc4cc5cccc(C)c5c(=O)n4-c4ccccc4)c4ncnc(N)c34)ccc2o1

>  <target or test system>
PI3K δ (Homo sapiens, UniProt O00329)

>  <IC50>
< 100 nM

$$$$
>  <molecule>
Cc1cccc2cc(C(C)Nc3ncnc4[nH]cnc34)n(C3CCCC3)c(=O)c12 (centres unmarked)

>  <target or test system>
PI3K δ (Homo sapiens, UniProt O00329)

>  <IC50>
< 100 nM

$$$$
>  <molecule>
Cc1cccc2cc([C@H](C)Nc3ncnc4[nH]cc(C#N)c34)n(C3CC3)c(=O)c12

>  <target or test system>
PI3K δ (Homo sapiens, UniProt O00329)

>  <IC50>
< 100 nM

$$$$
